# Tested on: Swiss mice, Sarcoma 180 sc, mean tumor weight T/C
# test-details: NCI In Vivo Anticancer Drug Screen. Data for tumor model Sarcoma 180 (subcutaneous) in Swiss mice
# assay-context: endpoint: mean tumor weight; dose: 4.0 mg/kg/injection; schedule: Q01DX007 (ip); vehicle: carboxymethylcellulose (CMC); higher = larger tumour
For each of the compounds below, state its T/C.

Task item: Entry under review: O=C1c2ccccc2C(=O)N1CCF . Reported T/C?
Reply: 90 % of control

Task item: Entry under review: O=C(O)CCc1c[nH]c2ccc(N(CCCl)CCCl)cc12 . Reported T/C?
Reply: 32 % of control

Task item: Entry under review: O=NN(CCCl)C(=O)NCCCl . Reported T/C?
Reply: 75 % of control

Task item: Entry under review: Nc1nc(=S)c2ncn(C3OC(COC(=O)c4ccc([N+](=O)[O-])cc4)C(OC(=O)c4ccc([N+](=O)[O-])cc4)C3OC(=O)c3ccc([N+](=O)[O-])cc3)c2[nH]1 (configuration not stated) . Reported T/C?
Reply: 77 % of control

Task item: Entry under review: CC1CN(C(=O)CCl)c2ccccc2N1C(=O)CCl (configuration not stated) . Reported T/C?
Reply: 114 % of control

Task item: Entry under review: N#[N+]c1cnc([O-])[nH]c1=O . Reported T/C?
Reply: 105 % of control

Task item: Entry under review: O=c1[nH]c(=O)n(C2CC(O)C(CO)O2)cc1F (configuration not stated) . Reported T/C?
Reply: 108 % of control

Task item: Entry under review: O=C(NCCCCCCCCCCNC(=O)N1CC1)N1CC1 . Reported T/C?
Reply: 38 % of control

Task item: Entry under review: O=C(O)C(=O)c1ccc(-c2ccccc2)cc1 . Reported T/C?
Reply: 83 % of control

Task item: Entry under review: CCCCNc1ncnc2c1cnn2C . Reported T/C?
Reply: 124 % of control

Task item: Entry under review: O=C(O)c1cc2ccccc2c(Br)c1O.OC1CCC(Br)C2CCC[N-]C12.[Cu+] . Reported T/C?
Reply: 83 % of control

Task item: Entry under review: CSc1nc(C)c(Br)c(Sc2nc(N)nc3nc[nH]c23)n1 . Reported T/C?
Reply: 91 % of control
